assayed target: P. falciparum apicoplast DNA polymerase (Pf-apPOL) (Plasmodium falciparum, UniProt Q8ILY1)
Sequence (Q8ILY1 entry or part of it): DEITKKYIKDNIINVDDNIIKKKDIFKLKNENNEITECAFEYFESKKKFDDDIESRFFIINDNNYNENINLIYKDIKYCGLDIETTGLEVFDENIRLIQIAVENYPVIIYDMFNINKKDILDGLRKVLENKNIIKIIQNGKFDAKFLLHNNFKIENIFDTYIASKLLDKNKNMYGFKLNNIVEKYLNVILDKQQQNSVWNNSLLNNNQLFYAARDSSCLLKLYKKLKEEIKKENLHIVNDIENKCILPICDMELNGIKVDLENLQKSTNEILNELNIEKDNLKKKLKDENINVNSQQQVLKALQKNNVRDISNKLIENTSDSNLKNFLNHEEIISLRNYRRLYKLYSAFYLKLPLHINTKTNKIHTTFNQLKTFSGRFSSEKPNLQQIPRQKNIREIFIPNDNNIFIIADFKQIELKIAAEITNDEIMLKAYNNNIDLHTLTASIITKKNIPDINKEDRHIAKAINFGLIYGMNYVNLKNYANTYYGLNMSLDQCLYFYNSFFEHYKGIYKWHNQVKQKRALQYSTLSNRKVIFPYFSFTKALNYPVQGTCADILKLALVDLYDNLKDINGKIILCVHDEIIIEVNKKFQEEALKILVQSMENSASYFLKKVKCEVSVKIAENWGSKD
assay summary: Fluorescence-based high-throughput DNA polymerase assay (molecular beacon), primary screen and dose-response
Format: biochemical
assay conditions: DRC-1; 90'; conc 10
So basically: % inhibition Apol 90' at 40% or higher? That is Y. Lower than 40%? That is N.

>>> group("C=CCOc1c(Br)cc(Br)cc1/C=C1\\SC(=N)NC1=O [KU0051640]")
"N"
>>> group("COc1ccccc1C1CC(=O)Oc2cc3c(cc21)OCO3 (stereo not shown) [KU0104502]")
"N"
>>> group("CC(C)CCNC(=O)c1cnn2c(O)cc(CSc3ccc(Cl)cc3)nc12 [Molecule 101]")
"Y"
>>> group("O=C(O)c1ccc(COc2cc([N+](=O)[O-])cc3cccnc23)cc1 [KU0058403]")
"N"
>>> group("C=CC1=C(C)c2cc3[nH]c(cc4nc(cc5[nH]c(cc1n2)c(C)c5CCC(=O)O)C(CCC(=O)O)=C4C)c(C)c3C=C [Molecule 91]")
"Y"
>>> group("Cc1ccc(N2NC(=O)/C(=C\\c3ccc(O)c([N+](=O)[O-])c3)C2=O)cc1Cl [KU0058427]")
"N"
>>> group("Cc1cccc(NC(=O)Cn2ccc3c(=O)[nH]ccc32)c1C [Molecule 11, O=C(Cn1ccc2c1cc[nH]c2=O)Nc1cccc(c1C)C]")
"Y"
>>> group("Cc1ccc(NC(=O)Cn2ccc3c(=O)[nH]ccc32)c(C)c1 [KU0205125]")
"N"
>>> group("COC(=O)c1sc(-c2ccc(C(C)(C)C)cc2)cc1NC(=O)CCC(=O)O [Molecule 87]")
"Y"

* * *

assayed target: bacteriophage T4 DNA polymerase (Enterobacteria phage T4)
Construct: made in house
Sequence (P04415 whole entry): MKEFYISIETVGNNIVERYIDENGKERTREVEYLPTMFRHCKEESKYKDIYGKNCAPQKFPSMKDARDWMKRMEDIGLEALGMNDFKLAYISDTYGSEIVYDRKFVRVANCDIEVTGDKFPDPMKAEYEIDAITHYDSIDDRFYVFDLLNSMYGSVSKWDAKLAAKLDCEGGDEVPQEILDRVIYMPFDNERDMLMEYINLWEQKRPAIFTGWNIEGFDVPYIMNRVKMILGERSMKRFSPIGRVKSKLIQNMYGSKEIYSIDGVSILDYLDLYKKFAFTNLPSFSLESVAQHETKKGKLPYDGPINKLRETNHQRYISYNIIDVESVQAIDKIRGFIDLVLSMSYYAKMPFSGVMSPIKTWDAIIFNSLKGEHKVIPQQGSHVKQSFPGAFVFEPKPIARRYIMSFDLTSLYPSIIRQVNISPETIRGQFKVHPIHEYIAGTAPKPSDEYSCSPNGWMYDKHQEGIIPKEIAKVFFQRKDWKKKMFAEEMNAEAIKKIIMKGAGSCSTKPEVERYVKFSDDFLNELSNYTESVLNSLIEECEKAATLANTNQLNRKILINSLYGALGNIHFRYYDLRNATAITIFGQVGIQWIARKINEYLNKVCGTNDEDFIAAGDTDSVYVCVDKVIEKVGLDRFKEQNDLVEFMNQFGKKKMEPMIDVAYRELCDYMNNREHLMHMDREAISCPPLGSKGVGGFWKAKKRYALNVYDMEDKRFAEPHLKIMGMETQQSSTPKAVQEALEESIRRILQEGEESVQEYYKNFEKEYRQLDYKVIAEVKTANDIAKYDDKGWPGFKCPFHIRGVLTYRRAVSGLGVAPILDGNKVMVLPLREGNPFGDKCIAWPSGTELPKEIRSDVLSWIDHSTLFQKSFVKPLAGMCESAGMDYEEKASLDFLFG
assay summary: Counter-screen against bacteriophage T4 DNA polymerase
Format: biochemical
assay conditions: DRC-1; read at 70'; concentration 5
Reported % inhibition T4 70' 5 values for the following compounds.
readout: % inhibition T4 70' 5 (%)

>>> experimental_result("C#CC(C=CC)OC(=O)c1ccccc1C(=O)O (centres unmarked) [Molecule 61, CC=CC(OC(=O)c1ccccc1C(=O)O)C#C]")
5.822
>>> experimental_result("Cn1nc(-c2nnc(-c3ccccc3F)o2)c2c1CCN(C(=O)c1ccccc1Cl)C2 [Molecule 34]")
-4
>>> experimental_result("CC(C)CC(C(=O)O)N1C(=O)C2C3C=CC(C2C1=O)C1C(=O)N(C(CC(C)C)C(=O)O)C(=O)C31 (centres unmarked) [KU0193449]")
1.3204
>>> experimental_result("COc1ccc(/C=C/c2cc(C(=O)O)c3ccccc3n2)cc1 [Molecule 5, COc1ccc(cc1)/C=C/c1nc2ccccc2c(c1)C(=O)O]")
-0.8035
>>> experimental_result("CC(=O)Nc1cc(C(=O)c2cccs2)nn(-c2ccc(Cl)cc2)c1=O [KU0267905]")
-1.806
>>> experimental_result("Cc1nc(C)c2c(n1)N(CC1CCCCC1)C(=O)CC2 [KU0218606]")
-8.391
>>> experimental_result("CCCc1ccc(Oc2coc3cc(OC)ccc3c2=O)cc1 [KU0193249]")
-0.7228
>>> experimental_result("O=C(CCc1csc(NC(=O)Nc2ccccc2)n1)Nc1nc2ccccc2s1 [KU0177354]")
6.65
>>> experimental_result("Nc1cc(Oc2ccc(O)c(N)c2)ccc1O [KU0034728]")
9.3179
>>> experimental_result("Cc1cccc(-c2noc(C(=O)NNC(=O)C(Cl)(Cl)Cl)n2)c1 [KU0266208]")
-1.004
>>> experimental_result("Cc1ccsc1Cn1c(C)ccc1C [Molecule 70, Cc1ccsc1Cn1c(C)ccc1C]")
-3.037
>>> experimental_result("O=C1CSC2=NC3=C(CCc4ccccc43)C(c3cccs3)N12 (centres unmarked) [Molecule 59, O=C1CSC2=NC3=C(C(N12)c1cccs1)CCc1c3cccc1]")
10.6029
>>> experimental_result("Cc1cc2[nH]c(C(=O)Nc3ccc(F)cc3)c(CN3CCOCC3)c2s1 [Molecule 60]")
3.336
>>> experimental_result("COc1ccc(C2CC(c3ccc(Cl)cc3Cl)Nc3nc(N)nn32)cc1OC (centres unmarked) [Molecule 43]")
0.633
>>> experimental_result("Cc1ccc(N2CCC(NC(=O)Cc3cccs3)C2=O)cc1C (centres unmarked) [Molecule 57, O=C(NC1CCN(C1=O)c1ccc(c(c1)C)C)Cc1cccs1]")
0.9049
>>> experimental_result("COc1ccccc1CC(=O)N1CCc2c(nc3cc(-c4ccccc4Cl)[nH]n3c2=O)C1 [Molecule 49]")
-6
>>> experimental_result("N#Cc1c(O)nc(N2CCCCC2)nc1-c1ccc2c(c1)OCO2 [KU0083146]")
-7.277
